- TEST: Half life in Sprague-Dawley rat at 5 mg/kg, po via gavage administration measured after 24 hrs by LCMS analysis
- Format: ADME, organism-based
- MEASUREMENT CONTEXT: in vivo

- CHEMICAL STRING: "Cl.N#Cc1ccc(Nc2nccc(Nc3c(F)cc(-c4ccc(C#N)cc4)cc3F)n2)cc1"
  half-life, h: 3.23

* * *

- TEST: Cmax in Sprague-Dawley rat at 5 mg/kg, po via gavage administration measured after 24 hrs by LCMS analysis
- Assay type: ADME, organism-based
- Set-up: dose 5 mg/kg, route oral
- MEASUREMENT CONTEXT: in vivo
ASSAY ENDPOINT: Cmax (ng/mL)

- CHEMICAL STRING: "Cl.N#Cc1ccc(Nc2nccc(Nc3c(F)cc(-c4ccc(C#N)cc4)cc3F)n2)cc1"
  ASSAY ENDPOINT: "Cmax"
  OBS VALUE: 887
